# EXPERIMENTAL_PROTOCOL: in vitro
# Format: in vitro ADME
# CONDITION: human, 15 min, 0.5 μM
ASSAY_READOUT: Residual rate (%) 15 min

INSERT INTO results (molecule, measurement) VALUES
  ('C=CC(=O)N1C[C@H](C)N(c2nc(=O)n(-c3c(SC)ccnc3C(C)C)c3nc(-c4c(N)ccc(Cl)c4F)c(Cl)cc23)C[C@H]1C (single isomer, unassigned)', 102.34),
  ('CC(C)[N+](C)(CCOC(=O)C1c2ccccc2Oc2ccccc21)C(C)C [Propantheline, reference compound]', 79.98),
  ('C=CC(=O)N1CCN(c2nc(=O)n(-c3c(C)ccnc3C(C)C)c3nc(-c4c(O)cccc4F)c(F)cc23)[C@@H](C)C1 [AMG 510, reference compound]', 93.77),
  ('C=CC(=O)N1C[C@H](C)N(c2nc(=O)n(-c3c(SC)ccnc3C(C)C)c3nc(-c4c(O)cccc4F)c(Cl)cc23)C[C@H]1C (single isomer, unassigned)', 99.15);

----------
# EXPERIMENTAL_PROTOCOL: Plasma stability, dog plasma
# Format: in vitro ADME
# CONDITION: dog, plasma
ASSAY_READOUT: half-life at 0.5 μM (min)

INSERT INTO measurements (molecule, assay_readout, measurement) VALUES
  ('C=CC(=O)N1C[C@H](C)N(c2nc(=O)n(-c3c(SC)ccnc3C(C)C)c3nc(-c4c(O)cccc4F)c(Cl)cc23)C[C@H]1C (single isomer, unassigned)', 'half-life at 0.5 μM', 533),
  ('C=CC(=O)N1C[C@H](C)N(c2nc(=O)n(-c3c(SC)ccnc3C(C)C)c3nc(-c4c(N)ccc(Cl)c4F)c(Cl)cc23)C[C@H]1C (single isomer, unassigned)', 'half-life at 0.5 μM', 1170);

----------
# EXPERIMENTAL_PROTOCOL: Plasma protein binding rate, dog plasma
# Type: in vitro ADME
# CONDITION: 37° C.
Entries annotated with measured fraction unbound at 6 h, 5 μM
ASSAY_READOUT: fraction unbound at 6 h, 5 μM

INSERT INTO measurements (molecule, assay_readout, measurement) VALUES
  ('C=CC(=O)N1C[C@H](C)N(c2nc(=O)n(-c3c(SC)ccnc3C(C)C)c3nc(-c4c(N)ccc(Cl)c4F)c(Cl)cc23)C[C@H]1C (single isomer, unassigned)', 'fraction unbound at 6 h, 5 μM', 0.013),
  ('C=CC(=O)N1C[C@H](C)N(c2nc(=O)n(-c3c(SC)ccnc3C(C)C)c3nc(-c4c(O)cccc4F)c(Cl)cc23)C[C@H]1C (single isomer, unassigned)', 'fraction unbound at 6 h, 5 μM', 0.075),
  ('C=CC(=O)N1C[C@H](C)N(c2nc(=O)n(-c3c(SC)ccnc3C(C)C)c3nc(-c4c(O)cccc4F)c(F)cc23)C[C@H]1C (single isomer, unassigned)', 'fraction unbound at 6 h, 5 μM', 0.174);

----------
# TARGET_OR_SYSTEM: hERG potassium channel (Homo sapiens)
# Sequence (Q12809 whole entry): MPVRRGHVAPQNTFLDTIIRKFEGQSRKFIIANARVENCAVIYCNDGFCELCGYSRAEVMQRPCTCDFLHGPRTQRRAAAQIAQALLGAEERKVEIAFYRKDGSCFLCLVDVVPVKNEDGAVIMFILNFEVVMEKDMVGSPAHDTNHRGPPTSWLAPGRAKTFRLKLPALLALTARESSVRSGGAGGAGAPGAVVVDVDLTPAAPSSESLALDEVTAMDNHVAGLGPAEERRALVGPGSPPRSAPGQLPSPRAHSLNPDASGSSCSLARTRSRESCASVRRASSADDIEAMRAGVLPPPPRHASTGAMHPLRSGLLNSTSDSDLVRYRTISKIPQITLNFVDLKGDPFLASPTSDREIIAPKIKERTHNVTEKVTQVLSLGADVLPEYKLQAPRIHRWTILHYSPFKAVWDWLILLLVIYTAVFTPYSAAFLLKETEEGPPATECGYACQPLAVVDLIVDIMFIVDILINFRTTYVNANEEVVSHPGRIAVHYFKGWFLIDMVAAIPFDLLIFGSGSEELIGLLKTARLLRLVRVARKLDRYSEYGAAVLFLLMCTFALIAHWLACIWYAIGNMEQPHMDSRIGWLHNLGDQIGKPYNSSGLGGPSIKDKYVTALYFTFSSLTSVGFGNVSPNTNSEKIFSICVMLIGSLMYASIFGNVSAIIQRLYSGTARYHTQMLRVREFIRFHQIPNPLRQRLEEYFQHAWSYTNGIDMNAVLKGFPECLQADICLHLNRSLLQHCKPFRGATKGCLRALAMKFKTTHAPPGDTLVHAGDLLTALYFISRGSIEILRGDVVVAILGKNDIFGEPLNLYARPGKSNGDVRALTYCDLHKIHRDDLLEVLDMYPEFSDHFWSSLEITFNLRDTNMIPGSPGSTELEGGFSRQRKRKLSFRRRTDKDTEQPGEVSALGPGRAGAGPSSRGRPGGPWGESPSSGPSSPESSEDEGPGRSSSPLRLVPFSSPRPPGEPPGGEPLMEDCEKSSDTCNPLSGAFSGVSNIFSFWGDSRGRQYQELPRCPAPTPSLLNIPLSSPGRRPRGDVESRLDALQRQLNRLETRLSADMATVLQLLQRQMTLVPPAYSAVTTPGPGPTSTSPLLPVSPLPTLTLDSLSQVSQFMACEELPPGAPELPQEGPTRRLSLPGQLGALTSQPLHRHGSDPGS
# EXPERIMENTAL_PROTOCOL: hERG potassium channel inhibitory activity (Qpatch, CHO-hERG cells)
# CONDITION: inhibition of hERG current, multiple concentrations
pIC50: −log10 of the molar value.
Entries annotated with measured pIC50
ASSAY_READOUT: pIC50

INSERT INTO measurements (molecule, measurement) VALUES
  ('C=CC(=O)N1C[C@H](C)N(c2nc(=O)n(-c3c(SC)ccnc3C(C)C)c3nc(-c4c(N)ccc(Cl)c4F)c(Cl)cc23)C[C@H]1C (single isomer, unassigned) [Embodiment 165-1]', '< 4.52'),
  ('C=CC(=O)N1C[C@H](C)N(c2nc(=O)n(-c3c(SC)ccnc3C(C)C)c3nc(-c4c(O)cccc4F)c(Cl)cc23)C[C@H]1C (single isomer, unassigned) [Embodiment 166-1]', '< 4.52'),
  ('C=CC(=O)N1C[C@H](C)N(c2nc(=O)n(-c3c(SC)ccnc3C(C)C)c3nc(-c4c(O)cccc4F)c(F)cc23)C[C@H]1C (single isomer, unassigned) [Embodiment 114-1]', '< 4.52');

Data provenance is patent US12497396B2.
